# Test system: Plasmodium berghei
# Method Summary: Luciferase/luciferin-expressing antifolate-resistant parasites were used to infect a culture of HepG2 cells that were pre-incubated with compounds. Infected hepatocytes emit light due to the luciferase reaction. Assay results are presented as the percent inhibition of light emission compared to control. […]
# Format: functional
# Assay Setup: sporozoite, HEPG2TOX_HILL_SLOPE 1.53, HEPG2TOX_R_SQUARED 0.955, PBLUC_HILL_SLOPE 2.45, PBLUC_R_SQUARED 0.607, read-out: LUCIFERASE INFECTION ASSAY - IC50
Measure Name: pIC50
The quantity pIC50 is defined as the negative base-10 logarithm of the molar concentration.

Enquiry: Lab note: need pIC50 for Cc1ccc(/N=C/c2c(-c3ccccc3Cl)[nH]c3ccccc23)cc1C on Plasmodium berghei, anyone have it?
Return: 5.77
